Taken from patent US20250115676A1.

- target under test: shADAM9-His (His-tagged soluble human ADAM9) (human) (UniProt Q13443)
- procedure details: BIACORE SPR; antibody captured, huADAM9-His as analyte
measured property: kon (M⁻¹ s⁻¹)
One number for each entry, in M⁻¹ s⁻¹.

Could you tell me which kon is on file for hMAB-A (2B.2) (antibody, V domains shown) VH: EVQLVESGGGLVKPGGSLRLSCAASGFTFSSYWMHWVRQAPGKGLEWVGEIIPIFGHTNYNEKFKSRFTISLDNSKNTLYLQMGSLRAEDTAVYYCARGGYYYYIGKGVLDYWGQGTTVTVSS VL: DIVMTQSPDSLAVSLGERATISCKASQSVDYSGDSYMNWYQQKPGQPPKLLIYAASDLESGIPARFSGSGSGTDFTLTISSLEPEDFATYYCQQSHEDPFTFGQGTKLEIK ?
610000
